# assayed_system: PLK4 (Homo sapiens, UniProt O00444)
# Sequence (O00444 whole entry): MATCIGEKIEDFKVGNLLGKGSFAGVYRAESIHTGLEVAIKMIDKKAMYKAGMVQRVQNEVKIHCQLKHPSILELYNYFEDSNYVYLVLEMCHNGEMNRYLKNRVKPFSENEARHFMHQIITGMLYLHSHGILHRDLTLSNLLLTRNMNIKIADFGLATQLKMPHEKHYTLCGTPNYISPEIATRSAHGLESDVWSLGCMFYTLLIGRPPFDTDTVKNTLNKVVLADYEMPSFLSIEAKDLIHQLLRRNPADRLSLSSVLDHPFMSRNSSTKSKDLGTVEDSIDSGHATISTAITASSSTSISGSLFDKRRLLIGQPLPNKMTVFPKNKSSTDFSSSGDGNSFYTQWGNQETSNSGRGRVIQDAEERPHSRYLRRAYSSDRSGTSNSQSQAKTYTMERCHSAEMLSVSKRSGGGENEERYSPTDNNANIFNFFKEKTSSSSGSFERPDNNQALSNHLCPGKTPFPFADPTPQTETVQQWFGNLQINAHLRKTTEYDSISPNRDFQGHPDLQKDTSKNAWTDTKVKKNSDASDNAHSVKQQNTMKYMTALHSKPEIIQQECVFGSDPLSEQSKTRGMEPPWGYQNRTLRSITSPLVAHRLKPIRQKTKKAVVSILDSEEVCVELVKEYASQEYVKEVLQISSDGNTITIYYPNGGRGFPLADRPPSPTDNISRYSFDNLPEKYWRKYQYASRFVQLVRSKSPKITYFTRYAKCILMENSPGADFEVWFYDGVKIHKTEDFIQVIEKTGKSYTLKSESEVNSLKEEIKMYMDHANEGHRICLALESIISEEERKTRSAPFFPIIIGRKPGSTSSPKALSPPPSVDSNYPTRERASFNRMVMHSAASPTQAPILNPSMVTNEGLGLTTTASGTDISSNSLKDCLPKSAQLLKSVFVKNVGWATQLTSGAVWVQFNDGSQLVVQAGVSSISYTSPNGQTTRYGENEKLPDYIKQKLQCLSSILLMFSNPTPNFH
pIC50: −log10 of the molar value.
Here the recorded pIC50 is given for each entry.

| molecule | assayed_system | pIC50 |
| --- | --- | --- |
| COc1c(Nc2cc(C)[nH]n2)nc(Sc2ccc(S(=O)(=O)C(C)(C)c3cccc(Cl)c3F)cc2F)nc1N1CCN(CCN(C)C)CC1 | PLK4 (Homo sapiens, UniProt O00444) | > 7.00 |
| COc1c(Nc2cc(C)[nH]n2)nc(Sc2ccc(S(=O)(=O)C(C)(C)c3nccs3)cc2)nc1N1CCN(CCN(C)C)CC1 | PLK4 (Homo sapiens, UniProt O00444) | > 7.00 |
| COc1c(Nc2cc(C)[nH]n2)nc(Sc2ccc(S(=O)(=O)Cc3cccc(Br)c3F)cc2F)nc1N1CCOCC1 | PLK4 (Homo sapiens, UniProt O00444) | > 7.00 |
| Cc1cc(Nc2nc(Sc3ccc(NC(=O)C4CC4)cc3)nc3c2C(C)CC3)n[nH]1 (centres unmarked) | PLK4 (Homo sapiens, UniProt O00444) | > 7.00 |
| COc1c(Nc2cc(C)[nH]n2)nc(Sc2ccc(S(=O)(=O)C(C)(C)c3cccc([N+](=O)[O-])c3F)cc2F)nc1N1CCN(C(C)=O)CC1 | PLK4 (Homo sapiens, UniProt O00444) | > 7.00 |
| Cc1cc(Nc2nc(Sc3ccccc3)nc(N3CCCCC3)c2C)n[nH]1 | PLK4 (Homo sapiens, UniProt O00444) | > 7.00 |

With those in mind, consider the next molecule.
Sample `COc1c(Nc2cc(C)[nH]n2)nc(Sc2ccc(S(=O)(=O)Cc3nccs3)cc2)nc1N1CCN(CCN(C)C)CC1` , system: PLK4 (Homo sapiens, UniProt O00444). Its pIC50 is > 7.00
